assay_details: Binding affinity to 5'-ATCGAT-3' of hairpin DNA (unknown origin) in cacodylic acid buffer at pH 6.5 at 25 degC by SPR analysis
measured_endpoint: Ke (×10⁶ /M)

A: CN(C)CCNC(=O)c1nc(NC(=O)c2cc(NC(=O)c3nc(NC=O)cn3C)cn2CCCN)cn1C
B: CN(C)CCCNC(=O)c1cc(NC(=O)c2cc(NC(=O)c3nc(NC=O)cn3C)cn2CCCN)cn1C
Hey, which is lower on measured Ke, A or B ? API: response body contains the label of the selected item.
A

* * *

Tested on: Nucleic Acid
assay_details: Binding affinity to 5'-ATCGAT-3' of hairpin DNA (unknown origin) in cacodylic acid buffer at pH 6.5 assessed as change in melting temperature at 3 uM by thermal denaturation assay
Type: nucleic-acid assay
measured_endpoint: ΔTm (°C)

Please review the entries below; each comes with its answer.
CN(C)CCCNC(=O)c1cc(NC(=O)c2cc(NC(=O)c3nc(NC=O)cn3C)cn2CCCN)cn1C | 7
CN(C)CCCNC(=O)c1cc(NC(=O)c2cc(NC(=O)c3nc(NC=O)cn3C)cn2C)cn1C | 3
CN(C)CCNC(=O)c1nc(NC(=O)c2cc(NC(=O)c3nc(NC=O)cn3C)cn2CCCN)cn1C | 11
CN(C)CCCNC(=O)c1cc(NC(=O)c2cc(NC(=O)c3cc(NC=O)cn3C)cn2C)cn1C | 1
CN(C)CCNC(=O)c1nc(NC(=O)c2cc(NC(=O)c3nc(NC=O)cn3C)cn2C)cn1C | 1

I: CN(C)CCCNC(=O)c1cc(NC(=O)c2nc(NC(=O)c3cc(NC=O)cn3CCCN)cn2C)cn1C
II: CN(C)CCCNC(=O)c1cc(NC(=O)c2cc(NC(=O)c3cc(NC=O)cn3C)cn2CCCN)cn1C
Hi, I'm comparing two records. Which one has the lower ΔTm, I or II ? Answer = label.
I
